We begin with a simple list: items and their reported Ki.
# test-target: isolated recombinant JAK2 kinase domain (Homo sapiens (Human), UniProt O60674)
# Sequence (O60674 849-1124): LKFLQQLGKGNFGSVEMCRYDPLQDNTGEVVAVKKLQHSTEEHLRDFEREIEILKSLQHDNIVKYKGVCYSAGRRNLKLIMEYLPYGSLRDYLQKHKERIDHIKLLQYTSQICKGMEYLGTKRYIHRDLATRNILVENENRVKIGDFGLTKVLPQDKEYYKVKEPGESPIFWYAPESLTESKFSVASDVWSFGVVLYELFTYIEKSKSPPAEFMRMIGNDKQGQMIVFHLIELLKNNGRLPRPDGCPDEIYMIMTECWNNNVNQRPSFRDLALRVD
# assay-procedure: JAK2 enzyme assay (Caliper LabChip, Ki)
# Type: biochemical
# condition-details: isolated recombinant JAK2 kinase domain, 0.2 nM enzyme, ATP 25 μM
The figure you give is taken to be in nM; do not add the unit.

Worked set:
compound	test-target	Ki (nM)
CSC1CCN(C(=O)N2C3CCC2CN(c2cccn4nc(Nc5cnn(CC(=O)N6CCN(C)CC6)c5)nc24)C3)CC1	isolated recombinant JAK2 kinase domain (Homo sapiens (Human), UniProt O60674)	2.6
CN1CCN(C(=O)Cn2cc(Nc3nc4c(N5CC6CCC(C5)N6C(=O)CC(O)C(F)(F)F)cccn4n3)cn2)CC1 (stereo not shown)	isolated recombinant JAK2 kinase domain (Homo sapiens (Human), UniProt O60674)	0.9
O=C(Cn1cc(Nc2nc3c(N4CC5CCC(C4)N5C(=O)N4CC(C(F)(F)F)C4)cccn3n2)cn1)N1CCC(CN2CCOCC2)CC1	isolated recombinant JAK2 kinase domain (Homo sapiens (Human), UniProt O60674)	0.7
CN1CCN(C(=O)Cn2cc(Nc3nc4c(N5CC6CCC(C5)N6S(=O)(=O)c5cccc(C(F)(F)F)c5)cccn4n3)cn2)CC1	isolated recombinant JAK2 kinase domain (Homo sapiens (Human), UniProt O60674)	1.5
CN1CCN(C(=O)Cn2cc(Nc3nc4c(N5CC6CCC(C5)N6S(=O)(=O)c5cccc(F)c5)cccn4n3)cn2)CC1	isolated recombinant JAK2 kinase domain (Homo sapiens (Human), UniProt O60674)	3.7
CN1CCN(C(=O)Cn2cc(Nc3nc4c(N5CC6CCC(C5)N6C(=O)C5CCC(F)(F)C5)cccn4n3)cn2)CC1 (stereo not shown)	isolated recombinant JAK2 kinase domain (Homo sapiens (Human), UniProt O60674)	2.5
CN1CCN(C(=O)Cn2cc(Nc3nc4c(N5C[C@H]6CC[C@@H](C5)[C@H]6OCc5cccc(CO)c5)cccn4n3)cn2)CC1	isolated recombinant JAK2 kinase domain (Homo sapiens (Human), UniProt O60674)	0.7
N#CC1(CNC2CCN(C(=O)Cn3cc(Nc4nc5c(N6CC7CCC(C6)N7C(=O)C6CC(C(F)(F)F)C6)cccn5n4)cn3)CC2)CC1 (stereo not shown) [Example 190]	isolated recombinant JAK2 kinase domain (Homo sapiens (Human), UniProt O60674)	1.8

Query the reported Ki for isolated recombinant JAK2 kinase domain (Homo sapiens (Human), UniProt O60674); item: "CN1CCN(C(=O)Cn2cc(Nc3nc4c(N5CC6CCC(C5)N6C(=O)CC(F)(F)F)cccn4n3)cn2)CC1"
1.7

Do the same for "CN1CCN(C(=O)Cn2cc(Nc3nc4c(N5CC6CCC(C5)N6C(=O)c5ccccc5Cl)cccn4n3)cn2)CC1" please
4.8

Do the same for "CN1CCN(C(=O)Cn2cc(Nc3nc4c(N5CC6CCC(C5)N6C(=O)c5ccns5)cccn4n3)cn2)CC1" please
0.9

Do the same for "CN1CCN(C(=O)Cn2cc(Nc3nc4c(N5CC6CCC(C5)N6S(=O)(=O)c5ccccc5C(F)(F)F)cccn4n3)cn2)CC1" please
3.1

Do the same for "CN1CCN(C(=O)Cn2cc(Nc3nc4c(N5CC6CCC(C5)N6C(=O)C5CCC(F)(F)CC5)cccn4n3)cn2)CC1" please
4.8

* * *

# test-target: isolated recombinant JAK2 kinase domain (Homo sapiens (Human), UniProt O60674)
# assay-procedure: JAK2 enzyme assay (Caliper LabChip, Ki)
# Assay type: biochemical
# condition-details: isolated recombinant JAK2 kinase domain, 0.2 nM enzyme, ATP 25 μM
We begin with a simple list: items and their reported pKi.
As a rule, pKi stands for the negative log10 of the concentration, concentration in M.

molecule	pKi
CN1CCN(C(=O)Cn2cc(Nc3nc4c(N5C[C@H]6CC[C@@H](C5)[C@H]6OCc5ccc(C#N)cc5)cccn4n3)cn2)CC1	9.00

For "CN1CCN(C(=O)Cn2cc(Nc3nc4c(N5C[C@H]6CC[C@@H](C5)[C@H]6OCc5ccccc5)cccn4n3)cn2)CC1" , what is its reported pKi?
9.22

Do the same for "CN1CCN(C(=O)Cn2cc(Nc3nc4c(N5CC6CCC(C5)N6S(=O)(=O)Cc5ccc(C(F)(F)F)cc5)cccn4n3)cn2)CC1" please
8.64

Do the same for "CN1CCN(C(=O)Cn2cc(Nc3nc4c(N5CC6CCCC(C5)N6C(=O)C5CSC5)cccn4n3)cn2)CC1" please
9.30

Do the same for CC(C(=O)N1CCN(C)CC1)n1cc(Nc2nc3c(N4CC5CCC(C4)N5C(=O)C4CC(C(F)(F)F)C4)cccn3n2)cn1 (stereo not drawn) [Example 124] please
8.43

Do the same for "O=C(Cn1cc(Nc2nc3c(N4CC5CCC(C4)N5C(=O)N4CC(C(F)(F)F)C4)cccn3n2)cn1)N1CCN(C2CSC2)CC1" please
9.40

Do the same for "CN1CCN(C(=O)Cn2cc(Nc3nc4c(N5CC6CCC(C5)N6C(=O)c5cccc(Cl)c5)cccn4n3)cn2)CC1" please
8.64

Do the same for "CN1CCN(C(=O)Cn2cc(Nc3nc4c(N5CC6CCCC(C5)N6C(=O)[C@H]5C[C@@H](C(F)(F)F)C5)cccn4n3)cn2)CC1" please
9.10

Do the same for "CN1CCN(C(=O)Cn2cc(Nc3nc4c(N5CC6CCC(C5)N6C(=O)CCC(F)(F)F)cccn4n3)cn2)CC1" please
8.92

Do the same for "Cc1ncc(S(=O)(=O)N2C3CCC2CN(c2cccn4nc(Nc5cnn(CC(=O)N6CCN(C)CC6)c5)nc24)C3)s1" please
9.10

Do the same for CN1CCN(C(=O)Cn2cc(Nc3nc4c(N5CC6CCC(C5)N6C(=O)N5CCC(C(F)(F)F)C5)cccn4n3)cn2)CC1 (stereo not drawn) please
8.89

* * *

We begin with a simple list: items and their reported pKi.
# test-target: isolated recombinant JAK1 kinase domain (Homo sapiens (Human))
# assay-procedure: JAK1 enzyme assay (Caliper LabChip, Ki)
# Format: biochemical
# condition-details: isolated recombinant JAK1 kinase domain, 1.5 nM enzyme, ATP 25 μM
As a rule, pKi stands for the negative log10 of the concentration, concentration in M.

Worked set:
compound	test-target	observable	observed-result
CN1CCN(C(=O)Cn2cc(Nc3nc4c(N5CC6CCC(C5)N6C(=O)C5CC5(F)F)cccn4n3)cn2)CC1 (stereo not shown)	isolated recombinant JAK1 kinase domain (Homo sapiens (Human))	pKi	8.89
CN1CCN(C(=O)Cn2cc(Nc3nc4c(N5CC6CCC(C5)N6S(=O)(=O)CCCC(F)(F)F)cccn4n3)cn2)CC1	isolated recombinant JAK1 kinase domain (Homo sapiens (Human))	pKi	9.15
CN1CCN(C(=O)Cn2cc(Nc3nc4c(N5CC6CCC(C5)N6C(=O)c5cccc(C#N)c5)cccn4n3)cn2)CC1	isolated recombinant JAK1 kinase domain (Homo sapiens (Human))	pKi	8.89

Query the reported pKi for isolated recombinant JAK1 kinase domain (Homo sapiens (Human)); item: "O=C(Cn1cc(Nc2nc3c(N4CC5CCC(C4)N5C(=O)CCC(F)(F)F)cccn3n2)cn1)N1CCC(CN2CCOCC2)CC1"
8.59

Do the same for "CN1CCN(C(=O)Cn2cc(Nc3nc4c(N5CC6CCC(C5)N6S(=O)(=O)c5ccccc5Cl)cccn4n3)cn2)CC1" please
9.30

Do the same for "O=C(Cn1cc(Nc2nc3c(N4CC5CCC(C4)N5C(=O)[C@H]4C[C@H](C(F)(F)F)C4)cccn3n2)cn1)N1CCN(C2CSC2)CC1" please
8.80

Do the same for "CN1CCN(C(=O)Cn2cc(Nc3nc4c(N5CC6CCC(C5)N6C(=O)c5cccs5)cccn4n3)cn2)CC1" please
9.10

Do the same for "CN1CCN(C(=O)Cn2cc(Nc3nc4c(N5CC6CCC(C5)N6CC(F)(F)F)cccn4n3)cn2)CC1" please
8.68

Do the same for "CN1CCN(C(=O)Cn2cc(Nc3nc4c(N5CC6CCC(C5)N6C(=O)C5CCSCC5)cccn4n3)cn2)CC1" please
8.51

Do the same for "CN1CCN(C(=O)Cn2cc(Nc3nc4c(N5CC6CCCC(C5)N6C(=O)N5CC(C(F)(F)F)C5)cccn4n3)cn2)CC1" please
9.40

Do the same for "CN1CCN(C(=O)Cn2cc(Nc3nc4c(N5CC6CCC(C5)N6S(=O)(=O)Cc5cccc(Cl)c5)cccn4n3)cn2)CC1" please
9.40

Do the same for "Cc1cc(S(=O)(=O)N2C3CCC2CN(c2cccn4nc(Nc5cnn(CC(=O)N6CCN(C)CC6)c5)nc24)C3)sn1" please
9.10

Do the same for "CN1CCN(C(=O)Cn2cc(Nc3nc4c(N5CC6CCC(C5)N6S(=O)(=O)c5cccc(C#N)c5)cccn4n3)cn2)CC1" please
9.30

* * *

# test-target: isolated recombinant JAK1 kinase domain (Homo sapiens (Human), UniProt P23458)
# Sequence (P23458 875-1153): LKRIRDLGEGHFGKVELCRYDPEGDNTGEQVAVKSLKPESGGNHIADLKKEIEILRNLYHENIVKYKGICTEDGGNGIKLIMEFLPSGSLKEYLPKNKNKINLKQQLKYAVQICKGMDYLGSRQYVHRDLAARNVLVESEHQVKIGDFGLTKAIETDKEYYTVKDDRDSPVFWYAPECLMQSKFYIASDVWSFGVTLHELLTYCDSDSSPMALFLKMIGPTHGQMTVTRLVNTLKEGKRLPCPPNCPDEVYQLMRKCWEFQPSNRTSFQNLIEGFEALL
# assay-procedure: JAK1 enzyme assay (Caliper LabChip, Ki)
# Type: biochemical
# condition-details: isolated recombinant JAK1 kinase domain, 1.5 nM enzyme, ATP 25 μM
We begin with a simple list: items and their reported Ki.
The figure you give is taken to be in nM; do not add the unit.

compound	unit-of-measurement	Ki
O=C(Cn1cc(Nc2nc3c(N4CC5CCC(C4)N5C(=O)CCC(F)(F)F)cccn3n2)cn1)N1CCN(C2CCCCC2)CC1 [Example 153]	nM	0.2
CN1CCN(C(=O)Cn2cc(Nc3nc4c(N5CC6CCC(C5)N6S(=O)(=O)CCC(F)(F)F)cccn4n3)cn2)CC1 [Example 60]	nM	0.7
CN1CCN(C(=O)Cn2cc(Nc3nc4c(N5CC6CCC(C5)N6C(=O)C5CCC(F)(F)C5)cccn4n3)cn2)CC1 (stereo not drawn) [Example 58]	nM	1.6
O=C(Cn1cc(Nc2nc3c(N4CC5CCC(C4)N5C(=O)N4CC(C(F)(F)F)C4)cccn3n2)cn1)N1CCC(N2CCOCC2)CC1 [Example 44]	nM	0.9
CN1CCN(C(=O)Cn2cc(Nc3nc4c(N5CC6CCC(C5)N6c5ccc(Cl)cc5)cccn4n3)cn2)CC1 [Example 113]	nM	0.2

Moving on to the next compound.
For CN1CCN(C(=O)Cn2cc(Nc3nc4c(N5CC6CCC(C5)N6C(=O)C5(C(F)(F)F)CC5)cccn4n3)cn2)CC1 [Example 38] , what is its reported Ki?
1.3
